This listing pairs compounds with measured inhibition in vivo at 24 mg/kg/day.
test system: Rattus norvegicus; experiment: In vivo inhibition of galactitol accumulation in diaphragm of rat at 24 mg/kg/day; format: functional
The number alone won't do; follow it with the unit.

Worked examples, 3 compounds total:
COc1ccc2c(C(=O)N(C)CC(=O)O)c(OCC(F)(F)F)ccc2c1C(F)(F)F :: 65%
COc1ccc2c(C(=S)N(C)CC(=O)O)c(Oc3ccccc3)ccc2c1C(F)(F)F :: 83%
COc1ccc2c(C(=S)N(C)CC(=O)O)c(Cl)ccc2c1C(F)(F)F :: 90%

// inhibition in vivo at 24 mg/kg/day lookup, compound = `COc1ccc2c(C(=O)N(C)CC(N)=O)c(Cl)ccc2c1C(F)(F)F` , result: 53%

// inhibition in vivo at 24 mg/kg/day lookup, compound = `COc1ccc2c(C(=S)N(C)CC(N)=O)cc(C)cc2c1Br` , result: 70%

---

biological target: UniProtKB P16116; assay: In vitro % decrease of aldose reductase measured in isolated partially purified bovine lens preparations at 10e-7 M concentration
This listing pairs molecules with measured inhibition.
Report only the number, with the unit % understood.

Worked examples, 5 molecules total:
COC(=O)N(CC(=O)O)C(=O)c1c(Br)ccc2c(C(F)(F)F)c(OC)ccc12 :: 77
COC(=O)N(CC(=O)O)C(=O)c1c(Cl)ccc2c(C(F)(F)F)c(OC)ccc12 :: 85
COc1ccc2c(C(=S)N(C)CC(=O)O)ccc(F)c2c1C(F)(F)F :: 84
COc1ccc2c(C(=O)N(C)CC(=O)O)c(F)ccc2c1C(F)(F)F :: 80
COc1ccc2c(C(=O)N(C)CC(=O)O)c(Br)ccc2c1C(F)(F)F :: 63

// inhibition lookup, molecule = `COC(=O)N(CC(=O)O)C(=O)c1c(OC)ccc2c(C(F)(F)F)c(OC)ccc12` , result: 83

// inhibition lookup, molecule = `CCCCOc1ccc2c(C(F)(F)F)c(OC)ccc2c1C(=O)N(C)CC(=O)O` , result: 42

// inhibition lookup, molecule = `COc1ccc2c(C(=O)N(C)CC(=O)O)c(Cc3ccccc3)ccc2c1C(F)(F)F` , result: 52

// inhibition lookup, molecule = `COC(=O)N(CC(=O)O)C(=O)c1c(OCC(F)(F)F)ccc2c(C(F)(F)F)c(OC)ccc12` , result: 83

// inhibition lookup, molecule = `COc1ccc2c(C(=S)N(C)CC(=O)O)cc(-c3ccccc3)cc2c1C(F)(F)F` , result: 93

// inhibition lookup, molecule = `COc1ccc2c(C(=S)N(C)CC(=O)O)c(Cl)ccc2c1C(F)(F)F` , result: 81

---

target: Aldo-keto reductase family 1 member B1 (Bos taurus, UniProt P16116); test: Inhibition of aldose reductase activity was measured on partially purified bovine lens preparations incubated in presence of 50 mM glucose.
measurement_label: pIC50
Give only the number. pIC50 is defined as minus log10 of concentration in molar units.

Per the reported Aldo-keto reductase family 1 member B1 (Bos taurus, UniProt P16116) data, `COC(=O)N(CC(=O)O)C(=O)c1c(F)ccc2c(C(F)(F)F)c(OC)ccc12` has pIC50 of 7.60

---

biological target: Aldo-keto reductase family 1 member B1 (Bos taurus) (UniProt P16116); assay: In vitro % decrease of aldose reductase measured in isolated partially purified bovine lens preparations at 10e-7 M concentration
# if value of inhibition reaches 80%, tag Fulfilled; if it stays below, tag Not fulfilled

# example entries with known answers
COc1ccc2c(C(=O)N(C)CC(=O)O)c(OCc3ccccc3)ccc2c1C(F)(F)F :: Not fulfilled
COc1ccc2c(C(=S)N(C)CC(=O)O)cccc2c1Br :: Not fulfilled
COc1ccc2c(C(=O)N(C)CC(=O)O)ccc(F)c2c1C(F)(F)F :: Not fulfilled

From here, focus on the item given below.
stdin: Entry `COc1ccc2c(C(=O)N(C)CC(=O)O)c(Oc3ccccc3)ccc2c1C(F)(F)F` : is its inhibition no less than 80%?
stdout: Fulfilled
